- study-target: Rat IL-23R_huFC (rat) (UniProt F1LX96)
- assay: rat IL-23R competitive binding ELISA
Bridges are numbered along the chain shown (N, C = ends). [ ]: non-standard residue; d: D form. 2Nal = N[C@@H](Cc1ccc2ccccc2c1)C(=O)O; Pen = CC(C)(S)[C@H](N)C(=O)O; αMeK = C[C@](N)(CCCCN)C(=O)O
assay-metric: IC50

In plain terms, XNTWQXFXXKNN (Ac; Pen-Pen disulfide; Phe(4-CONH2); 2-Nal; Acvc; NH2; DIG linker joins the two subunits) [[Ac-[Pen]-NTWQ-[Pen]-[Phe(4-CONH2)]-[2-Nal]-[Acvc]-KNN-NH2]2DIG] has a documented IC50 of 10 to 25 nM

Lab note: XQTWQXYXXENG (Ac; Pen-Pen disulfide; 2-Nal; α-MeOrn; NH2) [Ac-[Pen]-QTWQ-[Pen]-Y-[2-Nal]-[α-MeOrn]-ENG-NH2] gave IC50 of 100 to 1000 nM

Reported IC50 ( Ac-[Pen]QTWQ[Pen][2Nal][2Nal][αMeK]ENG-NH2 (disulfide 1-6; SMILES CC(=O)N[C@@H]1C(=O)N[C@@H](CCC(N)=O)C(=O)N[C@@H]([C@@H](C)O)C(=O)N[C@@H](Cc2c[nH]c3ccccc23)C(=O)N[C@@H](CCC(N)=O)C(=O)N[C@H](C(=O)N[C@@H](Cc2ccc3ccccc3c2)C(=O)N[C@@H](Cc2ccc3ccccc3c2)C(=O)N[C@@](C)(CCCCN)C(=O)N[C@@H](CCC(=O)O)C(=O)N[C@@H](CC(N)=O)C(=O)NCC(N)=O)C(C)(C)SSC1(C)C) [Ac-[Pen]-QTWQ-[Pen]-[2-Nal]-[2-Nal]-[α-MeLys]-ENG-NH2] ) = 100 to 1000 nM

Form: binder = XNTWQXFXXKNN (Ac; Pen-Pen disulfide; Phe(4-CONH2); 2-Nal; Aib; NH2; DIG linker joins the two subunits) [[Ac-[Pen]-NTWQ-[Pen]-[Phe(4-CONH2)]-[2-Nal]-[Aib]-KNN-NH2]2DIG] ; IC50 = 10 to 25 nM
